PDI for assorted compounds
experiment: LNP size and polydispersity index by Malvern Zetasizer dynamic light scattering (CA HA modFlu mRNA LNPs); format: physicochemical; conditions: LNP with CA HA modFlu mRNA; DLS
measured.quantity: PDI

compound | observed
CCCCCCCCC(CCCCCC)C(=O)OCC(COC(=O)C(CCCCCCCC)CC1CCC1)N1CCC2(CCN(CCCCO)CC2)CC1 (stereo not drawn) | 0.080
CCCCCCCC(CCCCCCC)C(=O)OCC(COC(=O)C(CCCCCCC)CCCCCCC)N1CCC2(CCN(CCCCO)C2)C1 (stereo not drawn) | 0.042
CCCCCCCC(CCCCCCC)C(=O)OCC(COC(=O)C(CCCCCCC)CCCCCCC)N1CCC2(CCN(CCCCO)CC2)C1 | 0.036
CCCCCCC(CCCC)(CCCC)CC(=O)OCC(COC(=O)CC(CCCC)(CCCC)CCCCCC)N1CCC2(CCN(CCCCO)CC2)CC1 | 0.080
CCCCCCCC(CCCCCCC)C(=O)OCC(COC(=O)C(CCCCCCC)CCCCCCC)N1CCC2(CCN(CCCO)CC2)CC1 | 0.054
CCCCCCCCCCCCC(CCCCCCC)C(=O)O[C@@H]1CC2(CCN(CCCCO)CC2)C[C@H]1OC(=O)C(CCCCCCC)CCCCCCCCCCCC (mixture of isomers) | 0.117

---

Each record here notes measured EE %.
assay: Encapsulation efficiency, RiboGreen RNA quantitation assay (CA HA modFlu mRNA LNPs); type: physicochemical; conditions: LNP with CA HA modFlu mRNA

molecule | EE %
CCCCCCCCC(CCCCC)C(=O)OCC(COC(=O)C(CCCCC)CCCCCCCC)N1CCC2(CCN(CCCCO)CC2)CC1 (stereo not shown) | 100%
CCCCCCCCC(CCCCCC)C(=O)OCC(COC(=O)C(CCCCCC)CCCCCCCC)N1CCC2(CCN(CCCCO)C2)C1 (stereo not shown) | 99%
CCCCCCCCC(CCCCCC)C(=O)OCC(COC(=O)C(CCCCCC)CCCCCCCC)N1CCC2(CCN(CCCCO)CC2)CC1 (stereo not shown) | 100%
CCCCCCCCC(CC1CCC1)C(=O)OCC(COC(=O)C(CCCCCCCC)CC1CCC1)N1CCC2(CCN(CCCCO)CC2)CC1 (stereo not shown) | 99%
CCCCCCCC(CCCCCCC)C(=O)OCC(COC(=O)C(CCCCCCC)CCCCCCC)N1CCC2(CCN(CCCCCO)C2)CC1 | 100%
CCCCCCCCC(CCCCCC)C(=O)OCCC(CCOC(=O)C(CCCCCC)CCCCCCCC)N1CCC2(CCN(CCCCO)CC2)CC1 (stereo not shown) | 100%
CCCCCCCCC(C(=O)OCC(COC(=O)C(CCCCCCCC)C1CCC1)N1CCC2(CCN(CCCCO)CC2)CC1)C1CCC1 (stereo not shown) | 98%

---

system: HEK293F cells; experiment: In vitro expression of novel ionizable lipid nanoparticles, high content imaging (CA HA modFlu mRNA); type: cell-based; settings: LNP with CA HA modFlu mRNA
Labelling: EC50 Hek293F (ng/well) reported below 0.7 ng/well becomes y; at or above becomes n.

molecule | system.name | group.label
CCCCCCCC(CCCCCCC)C(=O)OCC(COC(=O)C(CCCCCCC)CCCCCCC)N1CCC2(CCN(CCCNc3c(NC)c(=O)c3=O)CC2)CC1 | HEK293F cells | n
CCCCCCCC(CCCCCCC)C(=O)OCC(COC(=O)C(CCCCCCC)CCCCCCC)N1CCC2(CCN(CCCCO)CC2)CC1 | HEK293F cells | n
CCCCCCCC(CCCCCCC)C(=O)OCCCCCC(=O)O[C@@H]1CC2(CCN(CCCCO)CC2)C[C@H]1OC(=O)CCCCCOC(=O)C(CCCCCCC)CCCCCCC (racemic) | HEK293F cells | y
CCCCCCCCC(CCCCCC)CC(=O)OCC(COC(=O)CC(CCCCCC)CCCCCCCC)N1CCC2(CCN(CCCCO)CC2)CC1 (stereo not shown) | HEK293F cells | n
CCCCCCCCC(CC1CC=CC1)C(=O)OCC(COC(=O)C(CCCCCCCC)CC1CC=CC1)N1CCC2(CCN(CCCCO)CC2)CC1 (stereo not shown) | HEK293F cells | n
CCCCCCCCCCCCCCCC(=O)OCC(COC(=O)CCC(CCCC)C(CCCC)CCCC)N1CCC2(CCN(CCCCO)CC2)CC1 (stereo not shown) | HEK293F cells | n
CCCCCCCCC(CCCCC)C(=O)O[C@@H]1CC2(CCN(CCCCO)CC2)C[C@H]1OC(=O)C(CCCCC)CCCCCCCC (mixture of isomers) | HEK293F cells | y
CCCCCCCCC(CCCCCC)C(=O)OCC(COC(=O)C(CCCCCC)CCCCCCCC)N1CCC2(CCN(CCCNS(=O)(=O)CC)CC2)CC1 (stereo not shown) | HEK293F cells | n
CCCCCCCCC(CCCCCC)C(=O)O[C@@H]1CC2(CCN(CCCCO)CC2)C[C@H]1OC(=O)C(CCCCCC)CCCCCCCC (mixture of isomers) | HEK293F cells | n
CCCCCCCC(CCCCCCC)C(=O)OCC(COC(=O)C(CCCCCCC)CCCCCCC)N1CCC2(CCN(CCCCCO)CC2)CC1 | HEK293F cells | y
CCCCCCCCC(CCCCCCC)C(=O)O[C@@H]1CC2(CCN(CCCCO)CC2)C[C@H]1OC(=O)C(CCCCCCC)CCCCCCCC (mixture of isomers) | HEK293F cells | n
CCCCCCCCC(CC1CCCCC1)C(=O)OCC(COC(=O)C(CCCCCCCC)CC1CCCCC1)N1CCC2(CCN(CCCCO)CC2)CC1 (stereo not shown) | HEK293F cells | y
CCCCCCCCC(CCCCCCCC)C(=O)OCC(COC(=O)C(CCCCCCCC)CCCCCCCC)N1CCC2(CCN(CCCCO)CC2)CC1 | HEK293F cells | y

---

assay: LNP size and polydispersity index by Malvern Zetasizer dynamic light scattering (CA HA modFlu mRNA LNPs); assay type: physicochemical; conditions: LNP with CA HA modFlu mRNA; DLS

compound | PDI
CCCCCCCCC(CCCCCC)C(=O)OCC(COC(=O)C(CCCCCC)CCCCCCCC)N1CCC2(CCN(CCCCO)C2)C1 (stereo not drawn) [Example 33] | 0.090
CCCCCCCCC(CCCCCCCC)C(=O)O[C@@H]1CC2(CCN(CCCCO)CC2)C[C@H]1OC(=O)C(CCCCCCCC)CCCCCCCC (racemic) [Example 59] | 0.091
CCCCCCCC(CCCCCCC)C(=O)O[C@@H]1CC2(CCN(CCCO)C2)C[C@H]1OC(=O)C(CCCCCCC)CCCCCCC (racemic) [Example 53] | 0.090

---

system: HEK293F cells; assay: In vitro expression of novel ionizable lipid nanoparticles, high content imaging (CA HA modFlu mRNA); assay type: cell-based; details: LNP with CA HA modFlu mRNA

compound | system.name | scale.unit | EC50 Hek293F (ng/well)
CCCCCCCCC(CCCCC)C(=O)OCC(COC(=O)C(CCCCC)CCCCCCCC)N1CCC2(CCN(CCCCO)CC2)CC1 (stereo not shown) | HEK293F cells | ng/well | 0.82
CCCCCCCC(CCCCCCC)C(=O)O[C@@H]1CC2(CCN(CCCCO)CC2)C[C@H]1OC(=O)C(CCCCCCC)CCCCCCC (racemic) [Example 51] | HEK293F cells | ng/well | 0.27
CCCCCCCCC(CCCCCC)C(=O)O[C@@H]1CC2(CCN(CCCCO)CC2)C[C@H]1OC(=O)C(CC)CCCCCCC (mixture of isomers) | HEK293F cells | ng/well | 3.0
CCCCCCCCC(CCCCCC)C(=O)OCCC(CCOC(=O)C(CCCCCC)CCCCCCCC)N1CCC2(CCN(CCCCO)CC2)CC1 (stereo not shown) | HEK293F cells | ng/well | 4.0
CCCCC(CCCC)C(CCCC)CCC(=O)OCC(COC(=O)CCC(CCCC)C(CCCC)CCCC)N1CCC2(CCN(CCCCO)CC2)CC1 (stereo not shown) | HEK293F cells | ng/well | 28.1
CCCCCCCC(CCCCCCC)C(=O)OCC(COC(=O)C(CCCCCCC)CCCCCCC)C1CCC2(CC1)CCN(CCCCO)CC2 | HEK293F cells | ng/well | 2.5
CCCCCCCCC(CC1CCC1)C(=O)OCC(COC(=O)C(CCCCCCCC)CC1CCC1)N1CCC2(CCN(CCCCO)CC2)CC1 (stereo not shown) | HEK293F cells | ng/well | 12.6
